Below: a set of entries, each annotated with reported DC50.
- Target Under Test: IRAK4 (Homo sapiens, UniProt Q9NWZ3)
- Construct: Degradation of IRAK4 in OCI-LY10 was quantitatively measured using Meso Scale Discovery technology; endogenous in cells; host or cells: OCI-LY10
- Sequence (Q9NWZ3 1-460): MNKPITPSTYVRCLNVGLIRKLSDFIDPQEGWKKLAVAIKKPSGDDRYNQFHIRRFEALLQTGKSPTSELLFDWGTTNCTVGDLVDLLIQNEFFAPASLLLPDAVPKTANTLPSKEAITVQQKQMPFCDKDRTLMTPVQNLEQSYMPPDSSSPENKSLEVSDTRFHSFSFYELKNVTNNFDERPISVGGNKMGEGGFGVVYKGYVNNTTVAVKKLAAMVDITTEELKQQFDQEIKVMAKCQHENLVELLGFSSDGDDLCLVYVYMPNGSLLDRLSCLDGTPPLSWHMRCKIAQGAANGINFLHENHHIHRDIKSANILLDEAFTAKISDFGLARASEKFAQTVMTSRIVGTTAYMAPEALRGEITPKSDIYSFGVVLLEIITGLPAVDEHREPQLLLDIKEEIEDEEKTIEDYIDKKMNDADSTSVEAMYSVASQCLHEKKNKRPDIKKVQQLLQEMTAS
- Method Summary: IRAK4 MSD Degradation in OCI-LY10
- Assay type: cell-based
- Study Conditions: OCI-LY10 cells, 24 hrs incubation, MSD; read-out: IRAK4 degradation in OCI-LY10 at 24 hrs: DC50
- Method: Degradation of IRAK4 in OCI-LY10 was quantitatively measured using Meso Scale Discovery technology. […] Compounds were then added to the assay plates with a final top concentration of 1 to 10 μM in a 1:3 dilution series with total of 8 doses. […] The assay plates were then incubated at room temperature for 1 hour, washed 3 times with 150 μL/well TBST buffer, and 150 μL/well MSD reading buffer (Meso Scale Discovery catalog number R92TC-2) was added. […]

Worked examples, 6 compounds total:
Compound	Target Under Test	Readout Type	Result Value
Cn1c(=O)n(C2CCC(=O)NC2=O)c2cccc(C3COC4(C3)CN(C[C@H]3CC[C@H](n5cc6cc(NC(=O)c7cccc(C(F)(F)F)n7)ncc6n5)CC3)C4)c21 (some centres unmarked)	IRAK4 (Homo sapiens, UniProt Q9NWZ3)	DC50	< 10 nM
CN(C[C@H]1CC[C@H](n2cc(NC(=O)c3cnn4ccc(N5CCC(C)(C)CC5)nc34)c(C(F)F)n2)CC1)C1CCN(c2cccc3c2n(C)c(=O)n3C2CCC(=O)NC2=O)CC1(F)F (some centres unmarked)	IRAK4 (Homo sapiens, UniProt Q9NWZ3)	DC50	> 200 nM
Cn1c(=O)n(C2CCC(=O)NC2=O)c2cccc(C#CCN3CCN(C[C@H]4CC[C@H](n5cc(NC(=O)c6cnn7ccc(C8CCOC8)nc67)c(C(F)F)n5)CC4)CC3)c21 (some centres unmarked)	IRAK4 (Homo sapiens, UniProt Q9NWZ3)	DC50	> 200 nM
Cn1c(=O)n(C2CCC(=O)NC2=O)c2cccc(C#CCN3CCCN(C[C@H]4CC[C@H](n5cc(NC(=O)c6cnn7ccc(N8C[C@H]9C[C@@H]8CO9)nc67)c(C(F)F)n5)CC4)CC3)c21 (some centres unmarked)	IRAK4 (Homo sapiens, UniProt Q9NWZ3)	DC50	> 200 nM
Cn1c(=O)n(C2CCC(=O)NC2=O)c2cccc(C#CCN3CCN(C[C@H]4CC[C@H](n5cc(NC(=O)c6cnn7ccc(N8CCS(=O)(=O)CC8)nc67)c(C(F)F)n5)CC4)CC3)c21 (some centres unmarked)	IRAK4 (Homo sapiens, UniProt Q9NWZ3)	DC50	< 10 nM
Cn1c(=O)n(C2CCC(=O)NC2=O)c2cccc(C3COC4(C3)CN(C[C@H]3CC[C@H](n5cc6cc(NC(=O)c7cccc(C(F)(F)F)n7)ccc6n5)CC3)C4)c21 (some centres unmarked)	IRAK4 (Homo sapiens, UniProt Q9NWZ3)	DC50	< 10 nM

Fill in: DC50 of CN1CCN(c2ccn3ncc(C(=O)Nc4cn([C@H]5CC[C@H](CN6CCN(CC#Cc7cccc8c7n(C)c(=O)n8C7CCC(=O)NC7=O)CC6)CC5)nc4C(F)F)c3n2)CC1C(F)(F)F (some centres unmarked) is ___
> 200 nM

Fill in: DC50 of Cn1c(=O)n(C2CCC(=O)NC2=O)c2cccc(C#CCN3CCN(C[C@H]4CC[C@H](n5cc(NC(=O)c6cnn7ccc(OC8CCCC8)nc67)c(C(F)F)n5)CC4)CC3)c21 (some centres unmarked) is ___
10 to 100 nM

Fill in: DC50 of Cn1c(=O)n(C2CCC(=O)NC2=O)c2cccc(C#CCN3CCN(C[C@H]4CC[C@H](n5cc(NC(=O)c6cnn7ccc(N8C[C@H]9C[C@@H]8CO9)nc67)c(C(F)F)n5)CC4)CC3)c21 (some centres unmarked) is ___
> 200 nM

Fill in: DC50 of Cn1c(=O)n(C2CCC(=O)NC2=O)c2cccc(C#CCN3CCN(C[C@H]4CC[C@H](n5cc(NC(=O)c6cnn7ccc(N8CCC9(CCOCC9)C8)nc67)c(C(F)F)n5)CC4)CC3)c21 (some centres unmarked) is ___
< 10 nM

Fill in: DC50 of Cn1c(=O)n(C2CCC(=O)NC2=O)c2cccc([C@H]3C[C@H](CN4CCN(C[C@H]5CC[C@H](n6cc(NC(=O)c7cnn8cccnc78)c(C(F)F)n6)CC5)CC4)C3)c21 (some centres unmarked) is ___
> 200 nM

Fill in: DC50 of Cn1c(=O)n(C2CCC(=O)NC2=O)c2cccc(CCCN3CCN(C(C#N)[C@H]4CC[C@H](n5cc(NC(=O)c6cnn7ccc(N8C[C@H]9C[C@@H]8CO9)nc67)c(C(F)F)n5)CC4)CC3)c21 (some centres unmarked) is ___
> 200 nM

Fill in: DC50 of O=C1CCC(c2ccc(N3CC(CN4CCN(C[C@H]5CC[C@H](n6cc(NC(=O)c7cnn8ccc(N9C[C@H]%10C[C@@H]9CO%10)nc78)c(C(F)F)n6)CC5)CC4)C3)cc2Cl)C(=O)N1 (some centres unmarked) is ___
> 200 nM

----------
- Target Under Test: IRAK4 (Homo sapiens, UniProt Q9NWZ3)
- Construct: Degradation of IRAK4 in OCI-LY10 was quantitatively measured using Meso Scale Discovery technology; endogenous in cells; host or cells: OCI-LY10
- Method Summary: IRAK4 MSD Degradation in OCI-LY10
- Assay type: cell-based
- Study Conditions: OCI-LY10 cells, 24 hrs incubation, MSD; read-out: IRAK4 degradation in OCI-LY10 at 24 hrs: DC50
- Protocol: Degradation of IRAK4 in OCI-LY10 was quantitatively measured using Meso Scale Discovery technology. […] Compounds were then added to the assay plates with a final top concentration of 1 to 10 μM in a 1:3 dilution series with total of 8 doses. […] The assay plates were then incubated at room temperature for 1 hour, washed 3 times with 150 μL/well TBST buffer, and 150 μL/well MSD reading buffer (Meso Scale Discovery catalog number R92TC-2) was added. […]
Readout Type: DC50

Worked examples, 4 compounds total:
Compound	DC50
COc1cc2nn([C@H]3CC[C@H](CN4CC[C@H](c5cccc6c5n(C)c(=O)n6C5CCC(=O)NC5=O)[C@@H](F)C4)CC3)cc2cc1NC(=O)c1cccc(C(F)(F)F)n1 (stereo partly shown)	> 200 nM
Cn1c(=O)n(C2CCC(=O)NC2=O)c2cccc(C#CCOC3CCN(C[C@H]4CC[C@H](n5cc(NC(=O)c6cnn7ccc(N8C[C@H]9C[C@@H]8CO9)nc67)c(C(F)(F)F)n5)CC4)CC3)c21 (stereo partly shown)	> 200 nM
Cn1c(=O)n(C2CCC(=O)NC2=O)c2cccc(OC3CN(C[C@H]4CC[C@H](n5cc6cc(NC(=O)c7cccc(C(F)(F)F)n7)ncc6n5)CC4)C3)c21 (stereo partly shown)	> 200 nM
Cn1c(=O)n(C2CCC(=O)NC2=O)c2cccc([C@H]3C[C@](O)(CN4CCN(C[C@H]5CC[C@H](n6cc(NC(=O)c7cnn8ccc(N9C[C@H]%10CC9CO%10)nc78)c(C(F)F)n6)CC5)CC4)C3)c21 (stereo partly shown)	< 10 nM

// lookup DC50 | system=IRAK4 (Homo sapiens, UniProt Q9NWZ3) | key= Cn1c(=O)n(C2CCC(=O)NC2=O)c2cccc(N3CCN(CC4COC5(C4)CN(C[C@H]4CC[C@H](n6cc(NC(=O)c7cnn8ccc(N9C[C@H]%10C[C@@H]9CO%10)nc78)c(C(F)F)n6)CC4)C5)CC3)c21 (stereo partly shown)
< 10 nM

// lookup DC50 | system=IRAK4 (Homo sapiens, UniProt Q9NWZ3) | key= COc1nc(NC(=O)c2cccc(C(F)(F)F)n2)cc2cn([C@H]3CC[C@H](CN4CCN(c5cccc6c5n(C)c(=O)n6C5CCC(=O)NC5=O)CC4)CC3)nc12 (stereo partly shown)
> 200 nM

// lookup DC50 | system=IRAK4 (Homo sapiens, UniProt Q9NWZ3) | key= COc1nc(NC(=O)c2cccc(C(F)(F)F)n2)cc2cn([C@H]3CC[C@H](CN4CCC(c5cccc6c5n(C)c(=O)n6C5CCC(=O)NC5=O)C(F)(F)C4)CC3)nc12 (stereo partly shown)
> 200 nM

// lookup DC50 | system=IRAK4 (Homo sapiens, UniProt Q9NWZ3) | key= C[C@H]1CN(c2ccn3ncc(C(=O)Nc4cn([C@H]5CC[C@H](CN(C)C6CCN(c7cccc8c7n(C)c(=O)n8C7CCC(=O)NC7=O)CC6(F)F)CC5)nc4C(F)F)c3n2)CCO1 (stereo partly shown)
10 to 100 nM

// lookup DC50 | system=IRAK4 (Homo sapiens, UniProt Q9NWZ3) | key= Cn1c(=O)n(C2CCC(=O)NC2=O)c2cccc(N3CCC4(CC3)CN(Cc3ccc(-n5cc(NC(=O)c6cnn7cccnc67)c(C(F)F)n5)cc3)C4)c21 (stereo not shown)
> 200 nM

// lookup DC50 | system=IRAK4 (Homo sapiens, UniProt Q9NWZ3) | key= CC(C)(O)c1cc2nn([C@H]3CC[C@H](CNCCNc4cccc5c4C(=O)N(C4CCC(=O)NC4=O)C5=O)CC3)cc2cc1NC(=O)c1cccc(C(F)(F)F)n1 (stereo partly shown)
< 10 nM

The values you see were collected from patent US12091411B2.
